Measured values drawn from patent US8791303B2 for this set.

# Test system: Lolium perenne (LOLPE)
# method-notes: Example A glasshouse herbicide test, pre-emergence, LOLPE
# Format: in vivo
# condition-parameters: Lolium perenne, pre-emergence, 312 h, Rate 250 g/ha, sprayed after cultivation for one day, evaluated after 13 days, read-out: Pre-Emergence Activity LOLPE (100=total damage to plant; 0=no damage to plant)
reported-endpoint: pest or weed control at 250 g/ha (%)
Answer in %, number only, no unit symbol.

Please review the entries below; each comes with its answer.
Query: System Lolium perenne (LOLPE). Read-out pest or weed control at 250 g/ha. Item Cc1cc(C)c(C2C(=O)CC(Cc3ccccc3F)C2=O)c(C)c1 (centres unmarked) [Compound A14] . Report value.
Result: 100

Query: System Lolium perenne (LOLPE). Read-out pest or weed control at 250 g/ha. Item Cc1cc(C)c(C2C(=O)CC(CC3CCCC3)C2=O)c(C)c1 (centres unmarked) [Compound A3] . Report value.
Result: 100

Query: System Lolium perenne (LOLPE). Read-out pest or weed control at 250 g/ha. Item Cc1cc(C)c(C2C(=O)CC(CC3CCC(=NO)CC3)C2=O)c(C)c1 (centres unmarked) [Compound A8] . Report value.
Result: 90

Query: System Lolium perenne (LOLPE). Read-out pest or weed control at 250 g/ha. Item Cc1cc(C)c(C2=C(OC(=O)C(C)(C)C)C/C(=C\C3CCCCC3)C2=O)c(C)c1 [Compound B1] . Report value.
Result: 80

Query: System Lolium perenne (LOLPE). Read-out pest or weed control at 250 g/ha. Item Cc1cc(C)cc(CC2CC(OC(=O)C(C)(C)C)=C(c3c(C)cc(C)cc3C)C2=O)c1 (centres unmarked) [Compound B16] . Report value.
Result: 80

Next:
Query: System Lolium perenne (LOLPE). Read-out pest or weed control at 250 g/ha. Item Cc1cc(C)c(C2C(=O)CC(CC3CCC(C)CC3)C2=O)c(C)c1 (centres unmarked) [Compound A33] . Report value.
Result: 0

Query: System Lolium perenne (LOLPE). Read-out pest or weed control at 250 g/ha. Item Cc1cc(C)c(C2C(=O)CC(Cc3ccccc3C)C2=O)c(C)c1 (centres unmarked) [Compound A15] . Report value.
Result: 100

Query: System Lolium perenne (LOLPE). Read-out pest or weed control at 250 g/ha. Item Cc1cc(C)cc(CC2CC(=O)C(c3c(C)cc(C)cc3C)C2=O)c1 (centres unmarked) [Compound A21] . Report value.
Result: 100

Query: System Lolium perenne (LOLPE). Read-out pest or weed control at 250 g/ha. Item C=C(C)C1CCC(/C=C2\CC(=O)C(c3c(C)cc(C)cc3C)C2=O)CC1 (centres unmarked) [Compound A5] . Report value.
Result: 40

====

Examples of compounds with documented melting point follow.

Please review the entries below; each comes with its answer.
Query: Note down melting point recorded for Cc1cc(C)c(C2C(=O)CC(Cc3ccc(CS(=O)(=O)c4ccccc4)cc3)C2=O)c(C)c1 (stereo not shown) [Compound A22]
Result: 189 to 191.7 °C

Query: Note down melting point recorded for Cc1cc(C)c(C2C(=O)CC(Cc3cccc(Oc4ccccc4)c3)C2=O)c(C)c1 (stereo not shown) [Compound A13]
Result: 192 to 194.8 °C

Query: Note down melting point recorded for Cc1cc(C)c(C2C(=O)CC(Cc3ccccc3)C2=O)c(C)c1 (stereo not shown) [Compound A17]
Result: 160 to 165 °C

Query: Note down melting point recorded for Cc1cc(C)c(C2C(=O)CC(Cc3ccccc3F)C2=O)c(C)c1 (stereo not shown) [Compound A14]
Result: 197.8 to 210.2 °C

Next:
Query: Note down melting point recorded for COc1ccc(CC2CC(=O)C(c3c(C)cc(C)cc3C)C2=O)cc1 (stereo not shown) [Compound A24]
Result: 197.3 to 197.6 °C

Query: Note down melting point recorded for Cc1cccc(CC2CC(=O)C(c3c(C)cc(C)cc3C)C2=O)c1 (stereo not shown) [Compound A18]
Result: 173 to 179 °C

Query: Note down melting point recorded for Cc1cc(C)c(C2C(=O)CC(Cc3ccc(S(C)(=O)=O)cc3)C2=O)c(C)c1 (stereo not shown) [Compound A23]
Result: 235.3 to 238.6 °C
